target: UniProtKB P10275; experiment: Displacement of SRC2-3 peptide from human AR ligand binding site expressed in Escherichia coli BL21 by AF2 FP assay
Sequence (P10275 whole entry): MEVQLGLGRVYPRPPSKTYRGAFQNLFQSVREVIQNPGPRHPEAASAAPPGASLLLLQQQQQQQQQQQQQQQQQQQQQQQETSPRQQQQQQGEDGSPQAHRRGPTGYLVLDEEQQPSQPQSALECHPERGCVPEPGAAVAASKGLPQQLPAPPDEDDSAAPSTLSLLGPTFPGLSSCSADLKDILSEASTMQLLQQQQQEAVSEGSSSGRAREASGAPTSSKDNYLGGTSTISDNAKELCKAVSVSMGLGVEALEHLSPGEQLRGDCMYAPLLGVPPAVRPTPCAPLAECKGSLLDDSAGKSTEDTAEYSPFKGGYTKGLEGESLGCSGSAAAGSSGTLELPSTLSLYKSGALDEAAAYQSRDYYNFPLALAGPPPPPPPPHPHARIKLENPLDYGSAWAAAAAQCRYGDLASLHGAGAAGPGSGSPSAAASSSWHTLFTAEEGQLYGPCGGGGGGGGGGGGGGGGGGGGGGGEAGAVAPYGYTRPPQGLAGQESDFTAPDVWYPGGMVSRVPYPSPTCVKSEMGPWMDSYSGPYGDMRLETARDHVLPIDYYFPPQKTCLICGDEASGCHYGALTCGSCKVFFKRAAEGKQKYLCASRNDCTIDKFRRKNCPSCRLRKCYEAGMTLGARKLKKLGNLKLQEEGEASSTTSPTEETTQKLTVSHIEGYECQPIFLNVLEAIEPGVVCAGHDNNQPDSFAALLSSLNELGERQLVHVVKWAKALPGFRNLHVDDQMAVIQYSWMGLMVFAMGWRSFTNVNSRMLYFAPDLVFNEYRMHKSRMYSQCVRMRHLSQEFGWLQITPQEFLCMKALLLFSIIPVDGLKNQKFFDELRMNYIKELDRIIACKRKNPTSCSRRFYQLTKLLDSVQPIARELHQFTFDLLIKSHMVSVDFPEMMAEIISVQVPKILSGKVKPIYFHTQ
Readout Type: IC50 (µM)

Recorded IC50, per entry:
{"Substance Smiles": "CC1=NN(c2ccccc2)C(=O)/C1=N\\Nc1ccc(C(=O)O)c(O)c1", "Reading": 26}
{"Substance Smiles": "COc1cc(C2Nc3cccc4cccc(c34)N2)ccc1O", "Reading": 32.9}
{"Substance Smiles": "CCOc1cc(C2Nc3cccc4cccc(c34)N2)ccc1O", "Reading": 31.5}

(I) Oc1ccc(C2Nc3cccc4cccc(c34)N2)cc1
(II) COc1ccc(C2Nc3cccc4cccc(c34)N2)cc1O
*Q* // compare measured IC50, left I , right II , return larger State the label of the item chosen.
*A* I

meta.source: ChEMBL document CHEMBL1821560
